biological target: PIK3CD (Human) (UniProt O00329); test: Assessment of PIK3CD Kinase Activity
Sequence (O00329 whole entry, looked up): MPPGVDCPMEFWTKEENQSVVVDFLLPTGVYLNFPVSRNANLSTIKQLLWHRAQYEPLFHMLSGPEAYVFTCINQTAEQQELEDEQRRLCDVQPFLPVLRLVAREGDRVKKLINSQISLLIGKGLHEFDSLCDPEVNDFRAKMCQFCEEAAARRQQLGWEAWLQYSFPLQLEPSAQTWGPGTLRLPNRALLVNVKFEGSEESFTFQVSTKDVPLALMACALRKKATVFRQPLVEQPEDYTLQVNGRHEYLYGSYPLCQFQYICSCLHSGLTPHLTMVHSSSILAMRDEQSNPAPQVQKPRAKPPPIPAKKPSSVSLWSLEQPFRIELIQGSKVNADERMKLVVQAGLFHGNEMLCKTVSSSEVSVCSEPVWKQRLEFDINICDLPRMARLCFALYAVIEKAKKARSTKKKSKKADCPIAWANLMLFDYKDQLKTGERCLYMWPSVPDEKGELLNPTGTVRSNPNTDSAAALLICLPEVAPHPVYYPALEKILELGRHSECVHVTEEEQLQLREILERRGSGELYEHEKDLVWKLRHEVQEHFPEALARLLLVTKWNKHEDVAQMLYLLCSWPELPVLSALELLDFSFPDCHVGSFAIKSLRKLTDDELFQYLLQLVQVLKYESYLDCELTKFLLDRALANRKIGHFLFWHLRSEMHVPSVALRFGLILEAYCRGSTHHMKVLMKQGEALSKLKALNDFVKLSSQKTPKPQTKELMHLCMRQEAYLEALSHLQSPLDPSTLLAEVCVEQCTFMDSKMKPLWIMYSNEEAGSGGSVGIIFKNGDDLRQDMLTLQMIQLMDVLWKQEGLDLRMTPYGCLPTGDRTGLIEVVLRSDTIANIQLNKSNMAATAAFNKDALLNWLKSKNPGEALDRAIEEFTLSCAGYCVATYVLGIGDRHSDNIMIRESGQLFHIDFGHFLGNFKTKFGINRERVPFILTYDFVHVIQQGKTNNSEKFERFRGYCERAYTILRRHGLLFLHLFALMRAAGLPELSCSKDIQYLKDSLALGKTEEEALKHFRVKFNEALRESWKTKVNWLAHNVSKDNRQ
quantity-measured: IC50

Would you please look over these solved cases?
>>> df
                                     smiles                  target_of_assay      result
0  C[C@H](Nc1ncnc2cccnc12)c1cc2ccc(F)cc2c(=O)n1-c1ccccc1  PIK3CD (Human) (UniProt O00329)    < 100 nM
1  C[C@H](Nc1nc(O)nc2cccnc12)c1cc2cccc(C(F)(F)F)c2c(=O)n1-c1cccc(F)c1  PIK3CD (Human) (UniProt O00329)  > 10000 nM

-- ask Given C[C@H](Nc1ncnn2ccnc12)c1cc2cccc(C(F)(F)F)c2c(=O)n1-c1ccccc1 , state its recorded IC50.
-- reply < 100 nM

-- ask Given C[C@H](Nc1ccnn2ccnc12)c1cc2scc(-c3cnn(C)c3)c2c(=O)n1-c1ccccc1 , state its recorded IC50.
-- reply 100 to 1000 nM
